# target.of.assay: Avi-KRAS WT (2-169) GTP/RAF1 RBD-3xFLAG (51-131) (Homo sapiens, UniProt P01116)
# Construct: Avi-KRAS WT (2-169)
# Sequence (P01116 2-169 isoform P01116-2): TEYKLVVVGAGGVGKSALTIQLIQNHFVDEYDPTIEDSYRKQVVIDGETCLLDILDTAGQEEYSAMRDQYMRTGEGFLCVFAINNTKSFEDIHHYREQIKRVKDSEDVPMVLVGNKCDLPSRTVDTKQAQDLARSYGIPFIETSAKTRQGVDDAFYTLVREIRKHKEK
# test: Raf1-KRAS WT-GTP disruption HTRF assay (Biological Example 3)
# Type: binding
# experimental.context: KRAS WT, GTP-loaded
pIC50: −log10 of the molar value.
measured.property: pIC50

N#Cc1c(N)sc2c(F)ccc(-c3c(C(F)(F)F)cc4c(N5CCOCC5)nc(OC[C@@]56CCCN5C[C@H](F)C6)nc4c3F)c12 (single isomer, unassigned)	6.00 to 7.00
CN(Cc1cncnc1)c1nc(OC[C@@]23CCCN2C[C@H](F)C3)nc2c(F)c(-c3ccc(F)c4sc(N)c(C#N)c34)c(C(F)(F)F)cc12 (atropisomer, axis not shown)	5.00 to 6.00
CC(=O)N1CC[C@H](N(CCF)c2nc(OC[C@@]34CCCN3C[C@H](F)C4)nc3c(F)c(-c4ccc(F)c5sc(N)c(C#N)c45)c(C(F)(F)F)cc23)C1 (atropisomer, axis not shown)	6.00 to 7.00
CN(Cc1cnccn1)c1nc(OC[C@@]23CCCN2C[C@H](F)C3)nc2c(F)c(-c3ccc(F)c4sc(N)c(C#N)c34)c(C(F)(F)F)cc12 (atropisomer, axis not shown)	5.00 to 6.00

Next:
Could you please provide reported pIC50 for `CCN(c1nc(OC[C@@H]2C[C@@H](OC)CN2C)nc2c(F)c(-c3ccc(F)c4sc(N)c(C#N)c34)c(C(F)(F)F)cc12)[C@H]1CCN(C(=O)OC)C1` ? Thanks!
5.00 to 6.00

====

# target.of.assay: Avi-KRAS G12R (1-169) GppNHp/RAF1 RBD-3xFLAG (52-151) (Homo sapiens, UniProt P01116, G12R)
# Construct: Avi-KRAS G12R (1-169)
# Sequence (P01116 1-169 isoform P01116-2 G12R): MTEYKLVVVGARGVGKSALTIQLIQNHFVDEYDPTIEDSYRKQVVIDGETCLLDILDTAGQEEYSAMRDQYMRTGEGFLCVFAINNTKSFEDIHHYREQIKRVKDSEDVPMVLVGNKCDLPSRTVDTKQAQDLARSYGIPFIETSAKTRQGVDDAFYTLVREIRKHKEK
# test: Raf1-KRAS G12R-GppNHP disruption HTRF assay (Biological Example 1)
# Type: binding
# experimental.context: KRAS G12R-GppNHp/RAF1 RBD HTRF
pIC50: −log10 of the molar value.
measured.property: pIC50

Recorded results for 2 molecules are shown here.
CN(C)C(=O)[C@H]1CN(c2nc(OC[C@@]34CCCN3C[C@H](F)C4)nc3c(F)c(-c4ccc(F)c5sc(N)c(C#N)c45)c(C(F)(F)F)cc23)CCO1	6.00 to 7.00
C[C@@H]1[C@H](N(C)c2nc(OC[C@@]34CCCN3C[C@H](F)C4)nc3c(F)c(-c4ccc(F)c5sc(N)c(C#N)c45)c(Cl)cc23)CCN1C(=O)C1(F)CC1	5.00 to 6.00

Would you be so kind as to report pIC50 for each listed record?
1. CC(=O)N1C[C@@H](N(C)c2nc(OC[C@@]34CCCN3C[C@H](F)C4)nc3c(F)c(-c4ccc(F)c5sc(N)c(C#N)c45)c(C(F)(F)F)cc23)C[C@@H]1C
2. N#Cc1c(N)sc2c(F)ccc(-c3c(C(F)(F)F)cc4c(N5C[C@H]6C[C@@H](O)[C@@H]5C6)nc(OC[C@@]56CCCN5C[C@H](F)C6)nc4c3F)c12
3. COC(=O)N1CC[C@@H](N(C)c2nc(OC[C@@]34CCCN3C[C@H](F)C4)nc3c(F)c(-c4ccc(F)c5sc(N)c(C#N)c45)c(C(F)(F)F)cc23)[C@H]1C

["6.00 to 7.00", "6.00 to 7.00", "6.00 to 7.00"]
